target: T1, human PD-L1 on CHO cells (human, UniProt Q9NZQ7 19-290); experiment: flow cytometry; PD-L1 MFI over CD28 MFI
T1 construct: whole, on cells; CHO cells stably expressing PD-L1; also called huPD-L1
T1 sequence (Q9NZQ7 19-290): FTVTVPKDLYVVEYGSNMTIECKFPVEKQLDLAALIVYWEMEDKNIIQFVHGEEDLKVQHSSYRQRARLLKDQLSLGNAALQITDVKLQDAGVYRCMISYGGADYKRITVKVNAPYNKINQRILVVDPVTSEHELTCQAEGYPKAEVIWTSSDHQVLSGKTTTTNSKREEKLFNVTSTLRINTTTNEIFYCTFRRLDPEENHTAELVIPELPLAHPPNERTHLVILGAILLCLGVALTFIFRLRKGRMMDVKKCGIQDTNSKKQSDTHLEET
metricName: Ratio of PDL1:CD28

{"binder": "variant CD80 IgV-Fc E35D/D46E/A91G (Fc fusion, not shown: a dimerising Fc or GST) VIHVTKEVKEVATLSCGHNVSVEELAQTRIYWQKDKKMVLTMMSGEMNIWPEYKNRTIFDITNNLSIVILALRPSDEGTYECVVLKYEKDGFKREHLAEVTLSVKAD", "result": "1 ratio"}
{"binder": "variant CD80 IgV-Fc D46V/M47I/A71G (Fc fusion, not shown: a dimerising Fc or GST) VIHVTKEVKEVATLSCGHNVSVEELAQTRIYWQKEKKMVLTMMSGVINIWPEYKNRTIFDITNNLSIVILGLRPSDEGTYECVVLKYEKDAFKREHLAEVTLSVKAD", "result": "6 ratio"}
{"binder": "variant CD80 IgV-Fc Q27H/E35D/M47I (Fc fusion, not shown: a dimerising Fc or GST) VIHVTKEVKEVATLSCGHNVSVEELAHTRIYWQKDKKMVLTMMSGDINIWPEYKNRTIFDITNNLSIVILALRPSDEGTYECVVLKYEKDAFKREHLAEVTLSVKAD", "result": "5 ratio"}
{"binder": "variant CD80 IgV-Fc E35D/D46E/M47I (Fc fusion, not shown: a dimerising Fc or GST) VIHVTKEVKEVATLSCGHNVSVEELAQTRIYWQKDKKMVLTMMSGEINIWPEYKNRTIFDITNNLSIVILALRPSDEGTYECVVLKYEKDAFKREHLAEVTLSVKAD", "result": "4 ratio"}
{"binder": "variant CD80 IgV-Fc E35D/M43I/D46E/A71G/L85M (Fc fusion, not shown: a dimerising Fc or GST) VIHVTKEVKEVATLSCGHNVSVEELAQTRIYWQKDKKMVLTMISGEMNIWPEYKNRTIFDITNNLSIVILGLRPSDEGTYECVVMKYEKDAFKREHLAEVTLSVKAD", "result": "36 ratio"}
{"binder": "variant CD80 IgV-Fc E35D/D46E (Fc fusion, not shown: a dimerising Fc or GST) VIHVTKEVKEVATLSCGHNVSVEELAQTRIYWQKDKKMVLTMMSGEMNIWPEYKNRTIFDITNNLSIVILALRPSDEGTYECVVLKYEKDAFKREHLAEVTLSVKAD", "result": "5 ratio"}
{"binder": "variant CD80 IgV-Fc V22A/E35D/M47L/A71G (Fc fusion, not shown: a dimerising Fc or GST) VIHVTKEVKEVATLSCGHNVSAEELAQTRIYWQKDKKMVLTMMSGDLNIWPEYKNRTIFDITNNLSIVILGLRPSDEGTYECVVLKYEKDAFKREHLAEVTLSVKAD", "result": "8 ratio"}
{"binder": "CD80 WT IgV-Fc (Fc fusion, not shown: a dimerising Fc or GST, also called WT CD80 IgV-Fc; wild-type CD80 IgV-Fc) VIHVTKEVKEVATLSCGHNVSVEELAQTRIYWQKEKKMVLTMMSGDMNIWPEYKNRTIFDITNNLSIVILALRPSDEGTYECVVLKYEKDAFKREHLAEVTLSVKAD", "result": "1 ratio"}

Every entry's value here was drawn from patent US20210130436A1.
